Answer each item with its documented normalized RNA/DNA level with ligand (log10).
B1: library; a variant is named by its letters at N, in order (parent)
chain: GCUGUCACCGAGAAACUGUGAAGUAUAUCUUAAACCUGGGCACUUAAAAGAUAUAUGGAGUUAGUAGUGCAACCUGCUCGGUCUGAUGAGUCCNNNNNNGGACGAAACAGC

Variants of: B1
Experiment notes: normalized RNA/DNA level with ligand (relative to sTRSVctl = 100) (log10 (% of sTRSVctl)); HEK293T; ligand: cyclic di-GMP (c-di-GMP-II aptamer); ligand concentration (+) RNA-Seq: 1 mM; higher = less ribozyme self-cleavage, higher mRNA level
Assay conditions: reporter: mCherry (pCS4076), ligand present: yes
Lab note: jot the number down without any unit.

Entry GCUGUCACCGAGAAACUGUGAAGUAUAUCUUAAACCUGGGCACUUAAAAGAUAUAUGGAGUUAGUAGUGCAACCUGCUCGGUCUGAUGAGUCCCCCUUAGGACGAAACAGC [CCCUUA] : reported normalized RNA/DNA level with ligand (log10) = ?
1.7

Tell me the measured normalized RNA/DNA level with ligand (log10) of GCUGUCACCGAGAAACUGUGAAGUAUAUCUUAAACCUGGGCACUUAAAAGAUAUAUGGAGUUAGUAGUGCAACCUGCUCGGUCUGAUGAGUCCCCGGGGGGACGAAACAGC [CCGGGG] , please.
1.62

Could you share which normalized RNA/DNA level with ligand (log10) value was measured for GCUGUCACCGAGAAACUGUGAAGUAUAUCUUAAACCUGGGCACUUAAAAGAUAUAUGGAGUUAGUAGUGCAACCUGCUCGGUCUGAUGAGUCCUCAUAAGGACGAAACAGC [UCAUAA] ?
1.67

Name the reported normalized RNA/DNA level with ligand (log10) value associated with the variant GCUGUCACCGAGAAACUGUGAAGUAUAUCUUAAACCUGGGCACUUAAAAGAUAUAUGGAGUUAGUAGUGCAACCUGCUCGGUCUGAUGAGUCCCUCCUGGGACGAAACAGC [CUCCUG]
1.85

// normalized RNA/DNA level with ligand (log10) lookup, key: GCUGUCACCGAGAAACUGUGAAGUAUAUCUUAAACCUGGGCACUUAAAAGAUAUAUGGAGUUAGUAGUGCAACCUGCUCGGUCUGAUGAGUCCACCGCUGGACGAAACAGC [ACCGCU]
1.86

Could you tell me which normalized RNA/DNA level with ligand (log10) is on file for GCUGUCACCGAGAAACUGUGAAGUAUAUCUUAAACCUGGGCACUUAAAAGAUAUAUGGAGUUAGUAGUGCAACCUGCUCGGUCUGAUGAGUCCGCUAGUGGACGAAACAGC [GCUAGU] ?
1.78

normalized RNA/DNA level with ligand (log10) for GCUGUCACCGAGAAACUGUGAAGUAUAUCUUAAACCUGGGCACUUAAAAGAUAUAUGGAGUUAGUAGUGCAACCUGCUCGGUCUGAUGAGUCCUGUUGGGGACGAAACAGC [UGUUGG] ?
1.86

Quick check: normalized RNA/DNA level with ligand (log10) of GCUGUCACCGAGAAACUGUGAAGUAUAUCUUAAACCUGGGCACUUAAAAGAUAUAUGGAGUUAGUAGUGCAACCUGCUCGGUCUGAUGAGUCCCUCACUGGACGAAACAGC [CUCACU] ?
1.77

Would you mind telling me what normalized RNA/DNA level with ligand (log10) value was observed for GCUGUCACCGAGAAACUGUGAAGUAUAUCUUAAACCUGGGCACUUAAAAGAUAUAUGGAGUUAGUAGUGCAACCUGCUCGGUCUGAUGAGUCCUGAUACGGACGAAACAGC [UGAUAC] ?
1.8

Query: normalized RNA/DNA level with ligand (log10); subject: GCUGUCACCGAGAAACUGUGAAGUAUAUCUUAAACCUGGGCACUUAAAAGAUAUAUGGAGUUAGUAGUGCAACCUGCUCGGUCUGAUGAGUCCGGUAGCGGACGAAACAGC [GGUAGC]
1.8

Name the reported normalized RNA/DNA level with ligand (log10) value associated with the variant GCUGUCACCGAGAAACUGUGAAGUAUAUCUUAAACCUGGGCACUUAAAAGAUAUAUGGAGUUAGUAGUGCAACCUGCUCGGUCUGAUGAGUCCAACGGUGGACGAAACAGC [AACGGU]
1.77

Recorded normalized RNA/DNA level with ligand (log10) for GCUGUCACCGAGAAACUGUGAAGUAUAUCUUAAACCUGGGCACUUAAAAGAUAUAUGGAGUUAGUAGUGCAACCUGCUCGGUCUGAUGAGUCCGAAGUGGGACGAAACAGC [GAAGUG] , please?
1.81

Find the recorded normalized RNA/DNA level with ligand (log10) belonging to GCUGUCACCGAGAAACUGUGAAGUAUAUCUUAAACCUGGGCACUUAAAAGAUAUAUGGAGUUAGUAGUGCAACCUGCUCGGUCUGAUGAGUCCCCUAACGGACGAAACAGC [CCUAAC] and report it.
1.8

Recorded normalized RNA/DNA level with ligand (log10) for GCUGUCACCGAGAAACUGUGAAGUAUAUCUUAAACCUGGGCACUUAAAAGAUAUAUGGAGUUAGUAGUGCAACCUGCUCGGUCUGAUGAGUCCACGAACGGACGAAACAGC [ACGAAC] , please?
1.72

Entry GCUGUCACCGAGAAACUGUGAAGUAUAUCUUAAACCUGGGCACUUAAAAGAUAUAUGGAGUUAGUAGUGCAACCUGCUCGGUCUGAUGAGUCCUAUCUGGGACGAAACAGC [UAUCUG] : reported normalized RNA/DNA level with ligand (log10) = ?
1.87

Quick one: normalized RNA/DNA level with ligand (log10) of GCUGUCACCGAGAAACUGUGAAGUAUAUCUUAAACCUGGGCACUUAAAAGAUAUAUGGAGUUAGUAGUGCAACCUGCUCGGUCUGAUGAGUCCUAUGCAGGACGAAACAGC [UAUGCA] ?
1.87

Please look up its normalized RNA/DNA level with ligand (log10): GCUGUCACCGAGAAACUGUGAAGUAUAUCUUAAACCUGGGCACUUAAAAGAUAUAUGGAGUUAGUAGUGCAACCUGCUCGGUCUGAUGAGUCCCCCUCUGGACGAAACAGC [CCCUCU]
1.8

Entry GCUGUCACCGAGAAACUGUGAAGUAUAUCUUAAACCUGGGCACUUAAAAGAUAUAUGGAGUUAGUAGUGCAACCUGCUCGGUCUGAUGAGUCCGCCCCUGGACGAAACAGC [GCCCCU] has what normalized RNA/DNA level with ligand (log10)?
1.89

Tell me the measured normalized RNA/DNA level with ligand (log10) of GCUGUCACCGAGAAACUGUGAAGUAUAUCUUAAACCUGGGCACUUAAAAGAUAUAUGGAGUUAGUAGUGCAACCUGCUCGGUCUGAUGAGUCCAGCUCUGGACGAAACAGC [AGCUCU] , please.
1.88

Which normalized RNA/DNA level with ligand (log10) reading was recorded for the variant GCUGUCACCGAGAAACUGUGAAGUAUAUCUUAAACCUGGGCACUUAAAAGAUAUAUGGAGUUAGUAGUGCAACCUGCUCGGUCUGAUGAGUCCCCCCGAGGACGAAACAGC [CCCCGA] ?
1.84

Please look up its normalized RNA/DNA level with ligand (log10): GCUGUCACCGAGAAACUGUGAAGUAUAUCUUAAACCUGGGCACUUAAAAGAUAUAUGGAGUUAGUAGUGCAACCUGCUCGGUCUGAUGAGUCCAAAGACGGACGAAACAGC [AAAGAC]
1.75

Would you kindly share the measured normalized RNA/DNA level with ligand (log10) for GCUGUCACCGAGAAACUGUGAAGUAUAUCUUAAACCUGGGCACUUAAAAGAUAUAUGGAGUUAGUAGUGCAACCUGCUCGGUCUGAUGAGUCCCUGAAGGGACGAAACAGC [CUGAAG] ?
1.73
